src = the NIST ThermoML archive (doi:10.1016/j.jct.2016.07.017)

test: activity coefficient (dimensionless); of the first substance listed, at infinite dilution; xn = mol fraction of the nth substance listed; conditions: 358.15 K; 101.33 kPa; Liquid; Chromatography; x1 = 0
measuredProperty: activity coefficient
Answers are plain numbers.

Below are worked cases with known answers.
**Q:** Form field: reported activity coefficient of C#CCCCC [1-hexyne] + CC[N+](C)(CC)CCOC.O=S(=O)([N-]S(=O)(=O)C(F)(F)F)C(F)(F)F
**A:** 3.08

**Q:** Form field: reported activity coefficient of C=Cc1ccccc1 [styrene] + CC[N+](C)(CC)CCOC.O=S(=O)([N-]S(=O)(=O)C(F)(F)F)C(F)(F)F
**A:** 1.36

**Q:** Form field: reported activity coefficient of C1CCCCCCC1 [cyclooctane] + CC[N+](C)(CC)CCOC.O=S(=O)([N-]S(=O)(=O)C(F)(F)F)C(F)(F)F
**A:** 14.5

**Q:** Form field: reported activity coefficient of CCO [ethanol] + CC[N+](C)(CC)CCOC.O=S(=O)([N-]S(=O)(=O)C(F)(F)F)C(F)(F)F
**A:** 1.28

**Q:** Form field: reported activity coefficient of CC(C)OC(C)C [diisopropyl ether] + CC[N+](C)(CC)CCOC.O=S(=O)([N-]S(=O)(=O)C(F)(F)F)C(F)(F)F
**A:** 5.88

**Q:** Form field: reported activity coefficient of CC(C)O [propan-2-ol] + CC[N+](C)(CC)CCOC.O=S(=O)([N-]S(=O)(=O)C(F)(F)F)C(F)(F)F
**A:** 1.44

**Q:** Form field: reported activity coefficient of CC#N [acetonitrile] + CC[N+](C)(CC)CCOC.O=S(=O)([N-]S(=O)(=O)C(F)(F)F)C(F)(F)F
**A:** 0.49

**Q:** Form field: reported activity coefficient of C#CCCCCCC [1-octyne] + CC[N+](C)(CC)CCOC.O=S(=O)([N-]S(=O)(=O)C(F)(F)F)C(F)(F)F
**A:** 5.97

Now for another entry.
**Q:** Form field: reported activity coefficient of CCC(C)CC [3-methylpentane] + CC[N+](C)(CC)CCOC.O=S(=O)([N-]S(=O)(=O)C(F)(F)F)C(F)(F)F
**A:** 12.5

====

test: activity coefficient (dimensionless); of the first substance listed, at infinite dilution; xn = mol fraction of the nth substance listed; conditions: 318.15 K; 101.33 kPa; Liquid; Chromatography; x1 = 0
measuredProperty: activity coefficient
Numbers only.

Below are worked cases with known answers.
**Q:** Form field: reported activity coefficient of CCCCCCCC [octane] + CC[N+](C)(CC)CCOC.O=S(=O)([N-]S(=O)(=O)C(F)(F)F)C(F)(F)F
**A:** 38.3

**Q:** Form field: reported activity coefficient of C=CCCCCC [1-heptene] + CC[N+](C)(CC)CCOC.O=S(=O)([N-]S(=O)(=O)C(F)(F)F)C(F)(F)F
**A:** 13.3

Now for another entry.
**Q:** Form field: reported activity coefficient of CCCCCCC [heptane] + CC[N+](C)(CC)CCOC.O=S(=O)([N-]S(=O)(=O)C(F)(F)F)C(F)(F)F
**A:** 26.4

====

test: activity coefficient (dimensionless); of the first substance listed, at infinite dilution; xn = mol fraction of the nth substance listed; conditions: 348.15 K; 101.33 kPa; Liquid; Chromatography; x1 = 0
Record form. Attribute: activity coefficient. Fill in for each entry.
Give bare numbers.

**Q:** Form field: reported activity coefficient of CCC(=O)CC [pentan-3-one] + CC[N+](C)(CC)CCOC.O=S(=O)([N-]S(=O)(=O)C(F)(F)F)C(F)(F)F
**A:** 0.906

**Q:** Form field: reported activity coefficient of Cc1ccc(C)cc1 [1,4-dimethylbenzene] + CC[N+](C)(CC)CCOC.O=S(=O)([N-]S(=O)(=O)C(F)(F)F)C(F)(F)F
**A:** 2.17

**Q:** Form field: reported activity coefficient of C1CCCCCCC1 [cyclooctane] + CC[N+](C)(CC)CCOC.O=S(=O)([N-]S(=O)(=O)C(F)(F)F)C(F)(F)F
**A:** 15.7

**Q:** Form field: reported activity coefficient of C=CCCCCC [1-heptene] + CC[N+](C)(CC)CCOC.O=S(=O)([N-]S(=O)(=O)C(F)(F)F)C(F)(F)F
**A:** 11.4

**Q:** Form field: reported activity coefficient of Cc1cccc(C)c1 [1,3-dimethylbenzene] + CC[N+](C)(CC)CCOC.O=S(=O)([N-]S(=O)(=O)C(F)(F)F)C(F)(F)F
**A:** 2.17

**Q:** Form field: reported activity coefficient of CO [methanol] + CC[N+](C)(CC)CCOC.O=S(=O)([N-]S(=O)(=O)C(F)(F)F)C(F)(F)F
**A:** 1.09

Now for another entry.
**Q:** Form field: reported activity coefficient of C1COCCO1 [1,4-dioxane] + CC[N+](C)(CC)CCOC.O=S(=O)([N-]S(=O)(=O)C(F)(F)F)C(F)(F)F
**A:** 0.723
